// merged dataset of IC50 values, system = UniProt Q13627, multiple refs

Below, 5 molecules whose answers are already recorded.
>>> result("O=C1c2cccc(NC(=S)Nc3ccccn3)c2C2CCCCN12 (stereo not shown)")
"47000 nM"
>>> result("COc1cc(P(C)(C)=O)ccc1Nc1nc(NC2CCC2)c2c(C(F)(F)F)c[nH]c2n1")
"301 to 1000 nM"
>>> result("N#Cc1c[nH]c2nc(Nc3ccc(C(=O)N4CCOCC4)c4c3OCCO4)cc(NC3CC3)c12")
"301 to 1000 nM"
>>> result("COc1cc(S(=O)(=O)N2CCOCC2)ccc1Nc1cc(NCC(C)C)c2c(C(F)(F)F)c[nH]c2n1")
"301 to 1000 nM"
>>> result("O=C(c1ccc(Nc2nc(NC3CCOCC3)c3c(C(F)(F)F)c[nH]c3n2)c2c1CCO2)N1CCOCC1")
"301 to 1000 nM"

Quick check: IC50 on UniProt Q13627, item CCNc1nc(Nc2ccc(P3(=O)CCN(Cc4ccc(OC)cc4OC)CC3)cn2)nc2[nH]cc(C(F)(F)F)c12 ? < 100 nM

Quick check: IC50 on UniProt Q13627, item O=C(Nc1cnccn1)Nc1cccc2c1C1C[C@@H](O)CCN1C2=O (stereo partly shown) ? > 10000 nM

Quick check: IC50 on UniProt Q13627, item CNc1cc(Nc2ccc(S(=O)(=O)N3CCOCC3)cc2OC)nc2[nH]ccc12 ? 301 to 1000 nM

Quick check: IC50 on UniProt Q13627, item COc1cc(S(=O)(=O)N2CCOCC2)ccc1Nc1cc(NCCS(C)(=O)=O)c2c(Cl)c[nH]c2n1 ? 301 to 1000 nM

Quick check: IC50 on UniProt Q13627, item COc1cc(S(=O)(=O)N2CCC(N3CCOCC3)CC2)ccc1Nc1nc(NC(C)C)c2c(C(F)(F)F)c[nH]c2n1 ? 301 to 1000 nM

Quick check: IC50 on UniProt Q13627, item CC(O)CCN1CCN(c2ccc(Nc3ncc4ccc(=O)n([C@@H]5CC6CCC5C6)c4n3)cc2)CC1 (stereo partly shown) ? 1380 nM

Quick check: IC50 on UniProt Q13627, item N#Cc1c[nH]c2nc(Nc3ccc(C(=O)N4CCOCC4)c4c3OCC4)nc(NC3CCCCC3)c12 ? 301 to 1000 nM

###

// merged dataset of IC50 values, system = human GST-DYRK1A (Homo sapiens, UniProt Q13627), multiple refs

Below, 2 compounds whose answers are already recorded.
>>> result("CC[C@@H](C)Nc1nc(Nc2ccc(S(=O)(=O)N3CCC(N4CCOCC4)CC3)cc2OC)nc2[nH]cc(C#N)c12")
"301 to 1000 nM"
>>> result("CCCNc1nc(Nc2ccc(C(=O)N3CCN(C4COC4)CC3)c3c2OCCO3)nc2[nH]cc(C#N)c12")
"301 to 1000 nM"

Quick check: IC50 on human GST-DYRK1A (Homo sapiens, UniProt Q13627), item Cc1n[nH]c2ncc(NC3CCCN(Cc4ccc(F)cc4)C3)cc12 (stereo not shown) ? > 500 nM

Quick check: IC50 on human GST-DYRK1A (Homo sapiens, UniProt Q13627), item CC(C)(C)OC(=O)n1ccc(NC(=O)Nc2cccc3c2C2CCCCN2C3=O)n1 (stereo not shown) ? > 10000 nM

###

pIC50: −log10 of the molar value.
// merged dataset of pIC50 values, system = human GST-DYRK1A (Homo sapiens, UniProt Q13627), multiple refs

Below, 5 compounds whose answers are already recorded.
>>> result("CNc1cc(Nc2ccc(C(=O)N3CCC(N4CCOCC4)CC3)c3c2OCCO3)nc2[nH]cc(C#N)c12")
"6.52 to 7.00"
>>> result("O=C1CCCN1c1cncc(-c2cnc3[nH]ccc3c2)n1")
"< 6.30"
>>> result("COCCNc1nc(Nc2ccc(C(=O)N3CCC(N4CCOCC4)CC3)c3c2OCC3)nc2[nH]cc(C(F)(F)F)c12")
"> 7.00"
>>> result("COc1cc(S(=O)(=O)N2CCOCC2)ccc1Nc1cc(NC2CC2)c2c(C#N)c[nH]c2n1")
"6.00 to 6.52"
>>> result("COCCNc1cc(Nc2ccc(S(=O)(=O)N3CCOCC3)cc2OC)nc2[nH]cc(C(F)(F)F)c12")
"6.00 to 6.52"

Quick check: pIC50 on human GST-DYRK1A (Homo sapiens, UniProt Q13627), item N#Cc1c[nH]c2nc(Nc3ccc(C(=O)N4CCC(N5CCOCC5)CC4)c4c3OCCO4)nc(C3CC3)c12 ? > 7.00

Quick check: pIC50 on human GST-DYRK1A (Homo sapiens, UniProt Q13627), item COc1cc(S(=O)(=O)N2CCOCC2)ccc1Nc1nc(NC2CCC2)c2c(C(F)(F)F)c[nH]c2n1 ? 6.00 to 6.52

###

// merged dataset of IC50 values, system = human GST-DYRK1A (Homo sapiens, UniProt Q13627), multiple refs

Below, 6 compounds whose answers are already recorded.
>>> result("CCNc1nc(Nc2ccc(S(=O)(=O)N3CCC(N4CCOCC4)CC3)c3c2OCC3)nc2[nH]cc(C(F)(F)F)c12")
"301 to 1000 nM"
>>> result("COc1cc(S(C)(=O)=O)ccc1Nc1cc(NC(C)C)c2c(Cl)c[nH]c2n1")
"301 to 1000 nM"
>>> result("CC[C@@H](C)Nc1nc(Nc2ccc(S(=O)(=O)N3CCC(N4CCOCC4)CC3)cc2OC)nc2[nH]ccc12")
"301 to 1000 nM"
>>> result("CS(=O)(=O)CCNc1cc(Nc2ccc(C(=O)N3CCOCC3)c3c2OCCO3)nc2[nH]cc(Cl)c12")
"301 to 1000 nM"
>>> result("COCCNc1nc(Nc2ccc(S(=O)(=O)N3CCC(N4CCOCC4)CC3)cc2OC)nc2[nH]cc(C(F)(F)F)c12")
"101 to 300 nM"
>>> result("Oc1ccc(-c2nc3cc4c(cc3s2)OCO4)cc1O")
"19 nM"

Quick check: IC50 on human GST-DYRK1A (Homo sapiens, UniProt Q13627), item O=C(Nc1ncccn1)Nc1cccc2c1C1CCCCN1C2=O (stereo not drawn) ? > 10000 nM

###

// merged dataset of IC50 values, system = human GST-DYRK1A (Homo sapiens), multiple refs

Below, 5 molecules whose answers are already recorded.
>>> result("CNc1nc(Nc2ccc(C(=O)N3C[C@@H]4C[C@H]3CO4)c3c2OCCO3)nc2[nH]cc(C(F)(F)F)c12")
"< 100 nM"
>>> result("COCCNc1nc(Nc2ccc(S(C)(=O)=O)cc2OC)nc2[nH]cc(C#N)c12")
"301 to 1000 nM"
>>> result("CNc1nc(Nc2ccc(C(=O)N3CC[C@H](N4CCOCC4)C3)c3c2OCC3)nc2[nH]cc(C(F)(F)F)c12")
"< 100 nM"
>>> result("COCCn1nc2c(c1C#N)-c1cnc3[nH]cc(c3c1)-c1cn(nc1C(F)(F)F)CCCC(=O)N(C)C2")
"< 50 nM"
>>> result("COc1ccc(Nc2ccncc2-c2nc3cc(OC)ccc3s2)c(F)c1")
"351 nM"

Quick check: IC50 on human GST-DYRK1A (Homo sapiens), item N#Cc1c[nH]c2nc(Nc3ccc(C(=O)N4CCOCC4)c4c3OCCO4)nc(NC3CCC3)c12 ? 301 to 1000 nM

Quick check: IC50 on human GST-DYRK1A (Homo sapiens), item COc1cc(P2(=O)CCN(C3CCOCC3)CC2)ccc1Nc1nc(NC2CCCCC2)c2c(C#N)c[nH]c2n1 ? 301 to 1000 nM

###

pIC50: −log10 of the molar value.
// merged dataset of pIC50 values, system = human GST-DYRK1A (Homo sapiens), multiple refs

>>> result("O=[N+]([O-])c1ccc(O)cc1-c1nc2cc3c(cc2s1)OCO3")
6.28

Which pIC50 is reported for this compound? CCNc1nc(Nc2ccc(S(=O)(=O)N3CCC(N4CCOCC4)CC3)cc2OC)nc2[nH]cc(C#N)c12 6.00 to 6.52

Which pIC50 is reported for this compound? Oc1ccc(-c2nc3ccc4nn[nH]c4c3s2)cc1O 6.96

Which pIC50 is reported for this compound? CCNc1cc(Nc2ccc(P(C)(=O)N3CCC(N4CCOCC4)CC3)cc2OC)nc2[nH]cc(C(F)(F)F)c12 (centres unmarked) 6.52 to 7.00

Which pIC50 is reported for this compound? CCNc1cc(Nc2ccc(P(C)(=O)O)cc2OC)nc2[nH]ccc12 6.00 to 6.52

Which pIC50 is reported for this compound? CCNc1cc(Nc2ccc(P3(=O)CCN(Cc4ccc(OC)cc4OC)CC3)cn2)nc2[nH]cc(C(F)(F)F)c12 > 7.00

Which pIC50 is reported for this compound? COCC(C)(C)Nc1nc(Nc2ccc(S(C)(=O)=O)cc2OC)nc2[nH]ccc12 6.00 to 6.52

Which pIC50 is reported for this compound? CN(CC1CCOCC1)c1cncc(-c2cnc3[nH]cc(Cl)c3c2)n1 > 6.30
